molecular target: TRIM25 CC-PRY/SPRY (UniProt Q14258 189-630); assay: filter binding; ITC and filter binding: 20 mM MES pH 6.5, 75 mM NaCl, 0.5 mM TCEP (ITC 20 C, filter binding on ice); NMR: 20 mM Na phosphate pH 6.5, 150 mM NaCl, 2 mM TCEP, 293 K; conditions: protein: recombinant; tags: His-Trx (removed); chain copies: 2; hairpin
Sequence (Q14258 189-630): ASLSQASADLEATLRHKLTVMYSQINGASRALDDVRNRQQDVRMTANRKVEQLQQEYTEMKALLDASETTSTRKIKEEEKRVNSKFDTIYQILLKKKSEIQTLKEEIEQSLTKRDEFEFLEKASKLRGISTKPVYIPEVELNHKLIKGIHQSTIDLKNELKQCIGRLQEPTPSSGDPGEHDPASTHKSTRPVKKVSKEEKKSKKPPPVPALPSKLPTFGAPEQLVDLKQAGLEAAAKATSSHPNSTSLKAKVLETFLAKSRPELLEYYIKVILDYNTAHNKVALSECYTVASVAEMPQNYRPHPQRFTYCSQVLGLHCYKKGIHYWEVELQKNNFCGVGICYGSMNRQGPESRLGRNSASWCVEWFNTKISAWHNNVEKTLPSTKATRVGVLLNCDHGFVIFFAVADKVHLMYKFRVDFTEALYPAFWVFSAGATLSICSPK
reported-property: Kd (nM)

GCAGGUCGGAUUAAGCCAUAGUACGGGAAAAACUAUGCUACCUG (structured_RNA) [DENV-SL]	1.63
GUAUAGUUUAAAAGGAGAUAACUAUAC (structured_RNA) [pre-let-7a-1@2]	10.2
